Measured GI50 on HCT-15 follows.
value.kind: GI50 (µM)

> print(dat)
                                    compound  value.kind  limit.sign  observed.result
 1           COc1cc(C=O)cc(/C=N/c2ccccn2)c1O        GI50           =               29
 2  COc1ccc(NC(=O)N(C)CC2(O)CCC(C(C)(C)C)CC2)cc1 (stereo not given)        GI50           =             61.7
 3  COc1ccc(C2=Nn3c(C)nnc3S/C2=C\c2ccc(-c3ccc([N+](=O)[O-])cc3)o2)cc1        GI50           =             10.9
 4  COC(=O)C(Cc1nc2ccc(Cl)cc2nc1O)/C(=N/NC(N)=O)C(=O)Nc1ccc(Cl)cc1 (stereo not given)        GI50           >              100
 5  CC1C(C)(C)C23CC12C1(OCCO1)C3Br (stereo not given)        GI50           >              100
 6  CO/N=C(\C(=O)[N-]n1cn[n+](CC(=O)OC(C)(C)C)c1)c1csc(NC(c2ccccc2)(c2ccccc2)c2ccccc2)n1        GI50           >               10
 7      O=C(/C=C/c1ccc(OCc2cccc(Cl)c2)cc1)NO        GI50           =             5.05
 8  COc1ccc(C2C(C#N)=C(S)N(C3OC(CO)C(O)C(O)C3O)C(c3ccccc3)=C2C(C)=O)cc1 (stereo not given)        GI50           =             74.6
 9  O=C(O)CCN(CCCN(CCC(=O)O)CCC(=O)O)CCC(=O)O        GI50           >              100
10  Cc1nn(-c2ccccc2)c(C)c1/C=N/N=C1\S/C(=C\c2ccc(Cl)cc2)C(=O)N1c1ccccc1        GI50           =             9.89

---

test system: 786-0; test: NCI tumour cell line growth inhibition, 48 h
Activity calls are given as the source filed them. No stated cut-off is given here; in the data, active = GI50 up to about 1.1 µM and inactive = higher.
value.kind: GI50

> print(dat)
                                   molecule      observed.result
1  COc1ccc(NC(=O)CC(=O)N2N=C(c3ccccc3)C(/N=N/c3ccc(S(=O)(=O)CCOS(=O)(=O)O)cc3)C2=O)cc1 (stereo not given)  > 100 µM (inactive)
2  C=C1c2ccccc2Oc2nc3nc(N)c(C#N)c(N)c3c(N)c21     27 µM (inactive)
3  COc1ccc(Cn2c(=O)c(OS(=O)(=O)C(F)(F)F)c(C)c3cc4ccccc4cc32)cc1  > 100 µM (inactive)
4  CN(C)CC1CCCC(CN2CCCCC2)C1=O (stereo not given)   2.74 µM (inactive)
5  CCCCCCCCC(O)c1ccc(/C=C\C(O)CCCC(=O)O)s1 (stereo not given)  > 100 µM (inactive)

---

Recorded measurements of GI50, one per entry
test system: A498; test: NCI tumour cell line growth inhibition, 48 h
Activity calls are given as the source filed them. Cut-off read from the data, not from the text of the source: active = GI50 up to about 1.1 µM and inactive = higher.
value.kind: GI50

> print(dat)
                                    molecule  assay.system  value.kind      observed.result
 1  O=c1c2cc(Br)cc(Br)c2[nH]c(=S)n1-c1ccc(/N=N/c2ccc(O)c3cccnc23)cc1          A498        GI50  > 100 µM (inactive)
 2  CN1N=C2c3ccccc3CC[C@H]2C1c1ccccc1 (stereo partly specified)          A498        GI50   72.1 µM (inactive)
 3  CCC(Nc1ncnc2nc[nH]c12)C(=O)O (stereo unspecified)          A498        GI50  > 100 µM (inactive)
 4  S=c1[nH]nc(Cn2c3ccc(Br)cc3c3nc4ccccc4nc32)o1          A498        GI50   43.9 µM (inactive)
 5  Fc1ccccc1C1CC(C(c2ccccc2)c2ccccc2)=Nc2ccccc2S1 (stereo unspecified)          A498        GI50   6.53 µM (inactive)
 6            O=C(NCCNCCO)N/N=C/c1ccc(Cl)cc1          A498        GI50  > 100 µM (inactive)
 7  CC1(O)OC(=O)C2=C1CCC1C2CCC2(C)C(O)CCC12 (stereo unspecified)          A498        GI50  > 100 µM (inactive)
 8  CC(=O)Oc1ccc2c(-c3ccccc3)c(Oc3ccc(Cl)cc3)c(=O)oc2c1          A498        GI50     17 µM (inactive)
 9  CN(CCNC(=O)c1cn(C)c2c1ccc1ccccc12)CCNC(=O)c1cn(C)c2c1ccc1ccccc12          A498        GI50   10.6 µM (inactive)
10  Nc1ccccc1/N=C/c1cc2cc([N+](=O)[O-])ccc2s1          A498        GI50   10.4 µM (inactive)
11                CCNC(=O)c1c(O)nc2ccccc2c1O          A498        GI50  > 100 µM (inactive)
